test system: LC4-1 (B-Lymphoblastic Leukemia); experiment: combination Emax (second highest fraction inhibited in the dose matrix, 72 h); higher = more inhibition; extreme values may be limits of the assay
property name: combination Emax
Give bare numbers.

For each listed entry, give its combination Emax.
1. CN(C)CCCOc1ccc(-c2ccc3ncc4c(c3c2)n(C2CCOCC2)c(=O)n4C)cn1 [AZD0156] + C=CCn1c(=O)c2cnc(Nc3ccc(N4CCN(C)CC4)cc3)nc2n1-c1cccc(C(C)(C)O)n1 [AZD1775] (first compound max 1 µM, partner max 1 µM)
2. CN(C)CCCOc1ccc(-c2ccc3ncc4c(c3c2)n(C2CCOCC2)c(=O)n4C)cn1 [AZD0156] + C[C@@H]1COCCN1C2=NC(=NC(=C2)C3(CC3)[S@](=N)(=O)C)C4=C5C=CNC5=NC=C4 [AZD6738] (first compound max 1 µM, 7x7, partner max 10 µM)

[0.916, 0.908]

* * *

system: NCI-H2405 (Lung Adenocarcinoma); assay: combination Emax (second highest fraction inhibited in the dose matrix, 72 h); higher = more inhibition; extreme values may be limits of the assay
# label = yes (1) if combination Emax >= 0.3 else no (0)

Here are 7 compounds together with their reported answers.
- compound: "Cn1cnc2c(F)c(Nc3ccc(Br)cc3Cl)c(C(=O)NOCCO)cc21 [Selumetinib] + C[C@@H]1COCCN1C2=NC(=NC(=C2)C3(CC3)[S@](=N)(=O)C)C4=C5C=CNC5=NC=C4 [AZD6738] (first compound max 10 µM, 7x7, partner max 10 µM)"
  cat: "yes (1)"
- compound: "COc1cccc(OCCCN)c1-c1cc(Nc2cnc(C#N)cn2)n[nH]1 [Prexasertib] + Cc1cc2ncnn2cc1Nc1ncc2c(n1)n(C1CCOCC1)c(=O)n2C [AZD7648] (first compound max 1 µM, 7x7, partner max 10 µM)"
  cat: "yes (1)"
- compound: "CS(=O)(=O)CCNCc1ccc(-c2ccc3ncnc(Nc4ccc(OCc5cccc(F)c5)c(Cl)c4)c3c2)o1 [Lapatinib] + NC1(c2ccc(-c3nc4ccn5c(=O)[nH]nc5c4cc3-c3ccccc3)cc2)CCC1 [MK-2206] (first compound max 10 µM, 7x7, partner max 10 µM)"
  cat: "no (0)"
- compound: "COc1nnc2ccc(N3CCC(c4ccc(OCCN5CCN(C)C(=O)[C@H]5C)cc4)CC3)nn12 [AZD5153] + CC1(C)CCC(CN2CCN(c3ccc(C(=O)NS(=O)(=O)c4ccc(NCC5CCOCC5)c([N+](=O)[O-])c4)c(Oc4cnc5[nH]ccc5c4)c3)CC2)=C(c2ccc(Cl)cc2)C1 [Venetoclax] (first compound max 1 µM, 7x7, partner max 1 µM)"
  cat: "yes (1)"
- compound: "CN(CCO)CC[C@H](CSc1ccccc1)Nc1ccc(S(=O)(=O)NC(=O)c2ccc(N3CCC([C@@H](O)c4ccccc4-c4ccc(Cl)cc4)CC3)cc2)cc1S(=O)(=O)C(F)(F)F [AZD4320] + C[C@@H](Nc1cc(F)cc(F)c1)c1cc(C(=O)N(C)C)cc2c(=O)cc(N3CCOCC3)oc12 [AZD8186] (first compound max 1 µM, 7x7, partner max 3 µM)"
  cat: "yes (1)"
- compound: "CN(C)CCCOc1ccc(-c2ccc3ncc4c(c3c2)n(C2CCOCC2)c(=O)n4C)cn1 [AZD0156] + O=C(c1cc(Cc2n[nH]c(=O)c3ccccc23)ccc1F)N1CCN(C(=O)C2CC2)CC1 [Olaparib] (first compound max 3 µM, partner max 3 µM)"
  cat: "no (0)"
- compound: "CCc1c2c(nc3ccc(O)cc13)-c1cc3c(c(=O)n1C2)COC(=O)[C@]3(O)CC [SN-38] + O=C(c1cc(Cc2n[nH]c(=O)c3ccccc23)ccc1F)N1CCN(C(=O)C2CC2)CC1 [Olaparib] (first compound max 0.3 µM, 7x7, partner max 10 µM)"
  cat: "yes (1)"

Would you kindly look at the next entry?
Is combination Emax for NC1(C(=O)N[C@@H](CCO)c2ccc(Cl)cc2)CCN(c2ncnc3[nH]ccc23)CC1 [Capivasertib] + CCN(CCO)CCCOc1ccc2c(Nc3cc(CC(=O)Nc4cccc(F)c4)[nH]n3)ncnc2c1 [AZD2811] (first compound max 10 µM, 7x7, partner max 1 µM) at or above 0.3? yes (1)
